The entries below are paired with their reported protein stability index.
B1: RPAIN (parent)
chain: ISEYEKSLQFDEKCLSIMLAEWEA

Variants of: B1
Experiment: protein stability index of a GFP-peptide fusion (GPS, HEK-293T) (PSI 1-6); higher = more stable;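 note: lentivirally expressed fusions sorted by FACS into six bins by GFP to DsRed ratio, PSI derived from sequencing read proportions per bin multiplied by bin number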
Settings: c terminus: a fixed tail appended
Form field (numeric): enter value without unit.

>  <changes>
L8F

>  <reported-measurement>
1.9

$$$$

Which protein stability index reading was recorded for the variant E23W ?
2.83

Which protein stability index reading was recorded for the variant E23D ?
1.62

Which protein stability index reading was recorded for the variant L8H ?
2.65

Which protein stability index reading was recorded for the variant A20P ?
3.02
